Data provenance: patent US4582827A

This listing pairs molecules with measured Mean number of revertant colonies per plate, TA 1978 -S9.
Test system: Salmonella typhimurium strains TA 98, TA 100, TA 1535, TA 1537, TA 1538, TA 1978
assay_method_text: Ames assay (spot test), revertant colonies
Format: cell-based
measurement_conditions: strain TA 1978, -S9
experimental_endpoint: Mean number of revertant colonies per plate, TA 1978 -S9

molecule	result
Clc1ccc(N2CC2c2ccccc2Cl)cc1 (stereo not shown) [Compound 11]	209.7 colonies per plate
Clc1ccc(N2CC2c2ccccc2Cl)cc1Cl (stereo not shown) [Compound 10]	196.0 colonies per plate
CC(=O)Nc1ccc2c(c1)Cc1ccccc1-2 [AAF, 2-acetylaminofluorene, reference compound]	196.3 colonies per plate
Clc1ccccc1C1CN1c1ccc(Br)cc1 (stereo not shown) [Compound 1]	207.3 colonies per plate
